Every entry's value here was drawn from patent US12606520B2.

Test: PK in mice after iv injection of liposomal NA112: brain
Format: in vivo
Details: mouse, mice, iv 10 mg/kg in liposomes, read-out: Half-life of slower component in brain (converted)
Protocol: NA112 was prepared in liposomes at a concentration of 1.5 mg/ml. Mice were injected in the tail vein with 200 μl of NA112 in liposomes (corresponding to a dose of 10 mg/kg) and were sacrificed at the following time-points: 1, 5, 15, 30 min, 1, 2, 4, 8, 16 and 24 h. Blood was collected and plasma rapidly prepared by centrifugation. Brains were also collected. NA112 in plasma and in brain homogenates was assayed with LC/Ms and the sensitivity of the assay was 1 ng/ml. […]
value.kind: half-life

Task: If you can, please state the reported half-life value of CCC(NC(=O)[C@H](CC(C)C)NC(=O)NCc1ccccc1)C(=O)C(=O)NCc1cc(OC)cc(OC)c1 (mixture of isomers) .
Output: ~3 h

###

test: PK in mice after iv injection of liposomal NA112: plasma; type: in vivo; conditions: mouse, iv, 10 mg/kg, mice iv 10 mg/kg liposomes, 2 hr, read-out: Plasma concentration Mean
value.kind: concentration at 2 hr
Please format your answer as a value with the unit trailing.

Task: Can you look up the measured concentration at 2 hr of CCC(NC(=O)[C@H](CC(C)C)NC(=O)NCc1ccccc1)C(=O)C(=O)NCc1cc(OC)cc(OC)c1 (mixture of isomers) for me?
Output: 0.0955 µg/mL

###

test: PK in mice after iv injection of liposomal NA112: plasma; assay type: in vivo; settings: mouse, iv, 10 mg/kg, mice iv 10 mg/kg liposomes, 0.0833 hr, read-out: Plasma concentration A1
value.kind: concentration at 0.0833 hr (µg/mL)
Numbers only, in µg/mL.

Task: Quick check: concentration at 0.0833 hr of CCC(NC(=O)[C@H](CC(C)C)NC(=O)NCc1ccccc1)C(=O)C(=O)NCc1cc(OC)cc(OC)c1 (mixture of isomers) ?
Output: 116

###

assay: PK in mice after iv injection of liposomal NA112: plasma; assay type: in vivo; settings: mouse, iv, 10 mg/kg, mice iv 10 mg/kg liposomes, 0.0833 hr, read-out: Plasma concentration Mean
value.kind: concentration at 0.0833 hr
Your answer should be a number followed by the unit of measure.

Task: For the compound shown here, CCC(NC(=O)[C@H](CC(C)C)NC(=O)NCc1ccccc1)C(=O)C(=O)NCc1cc(OC)cc(OC)c1 (mixture of isomers) , give the reported concentration at 0.0833 hr.
Output: 92.3 µg/mL

###

Experiment: PK in mice after iv injection of liposomal NA112: brain
Type: in vivo
Settings: mouse, iv, 10 mg/kg, mice iv 10 mg/kg liposomes, 8 hr, read-out: Brain concentration A1
Experimental: NA112 was prepared in liposomes at a concentration of 1.5 mg/ml. Mice were injected in the tail vein with 200 μl of NA112 in liposomes (corresponding to a dose of 10 mg/kg) and were sacrificed at the following time-points: 1, 5, 15, 30 min, 1, 2, 4, 8, 16 and 24 h. Blood was collected and plasma rapidly prepared by centrifugation. Brains were also collected. NA112 in plasma and in brain homogenates was assayed with LC/Ms and the sensitivity of the assay was 1 ng/ml. […]
value.kind: concentration at 8 h (ng/mL)
One number for each entry, in ng/mL.

Task: Look up concentration at 8 h for this compound: CCC(NC(=O)[C@H](CC(C)C)NC(=O)NCc1ccccc1)C(=O)C(=O)NCc1cc(OC)cc(OC)c1 (mixture of isomers)
Output: 19.5

###

experiment: PK in mice after iv injection of liposomal NA112: brain; assay type: in vivo; conditions: mouse, iv, 10 mg/kg, mice iv 10 mg/kg liposomes, 0.0167 hr, read-out: Brain concentration A1
value.kind: concentration at 1 min (ng/mL)
One number for each entry, in ng/mL.

Task: Find the recorded concentration at 1 min belonging to CCC(NC(=O)[C@H](CC(C)C)NC(=O)NCc1ccccc1)C(=O)C(=O)NCc1cc(OC)cc(OC)c1 (mixture of isomers) and report it.
Output: 520

###

assay: PK in mice after iv injection of liposomal NA112: brain; assay type: in vivo; details: mouse, iv, 10 mg/kg, mice iv 10 mg/kg liposomes, 0.5 hr, read-out: Brain concentration Mean
value.kind: concentration at 0.5 hr (ng/mL)
Answers are plain numbers, in ng/mL.

Task: I would be grateful if you could share the reported concentration at 0.5 hr for CCC(NC(=O)[C@H](CC(C)C)NC(=O)NCc1ccccc1)C(=O)C(=O)NCc1cc(OC)cc(OC)c1 (mixture of isomers) [NA112] .
Output: 62

###

test: PK in mice after iv injection of liposomal NA112: plasma; assay type: in vivo; conditions: mouse, iv, 10 mg/kg, mice iv 10 mg/kg liposomes, 1 hr, read-out: Plasma concentration Mean
value.kind: concentration at 1 hr (ng/mL)
One number for each entry, in ng/mL.

Task: Can you share its concentration at 1 hr? I mean this compound: CCC(NC(=O)[C@H](CC(C)C)NC(=O)NCc1ccccc1)C(=O)C(=O)NCc1cc(OC)cc(OC)c1 (mixture of isomers)
Output: 2970

###

assay: PK in mice after iv injection of liposomal NA112: brain; assay type: in vivo; conditions: mouse, iv, 10 mg/kg, mice iv 10 mg/kg liposomes, 0.25 hr, read-out: Brain concentration A2
value.kind: concentration at 0.25 h (ng/mL)
Answers are plain numbers, in ng/mL.

Task: Recorded concentration at 0.25 h for CCC(NC(=O)[C@H](CC(C)C)NC(=O)NCc1ccccc1)C(=O)C(=O)NCc1cc(OC)cc(OC)c1 (mixture of isomers) , please?
Output: 62.3

###

Molecular target: recombinant human calpain-2 (hcalpain-2) (Homo sapiens)
Sequence (P17655 1-700): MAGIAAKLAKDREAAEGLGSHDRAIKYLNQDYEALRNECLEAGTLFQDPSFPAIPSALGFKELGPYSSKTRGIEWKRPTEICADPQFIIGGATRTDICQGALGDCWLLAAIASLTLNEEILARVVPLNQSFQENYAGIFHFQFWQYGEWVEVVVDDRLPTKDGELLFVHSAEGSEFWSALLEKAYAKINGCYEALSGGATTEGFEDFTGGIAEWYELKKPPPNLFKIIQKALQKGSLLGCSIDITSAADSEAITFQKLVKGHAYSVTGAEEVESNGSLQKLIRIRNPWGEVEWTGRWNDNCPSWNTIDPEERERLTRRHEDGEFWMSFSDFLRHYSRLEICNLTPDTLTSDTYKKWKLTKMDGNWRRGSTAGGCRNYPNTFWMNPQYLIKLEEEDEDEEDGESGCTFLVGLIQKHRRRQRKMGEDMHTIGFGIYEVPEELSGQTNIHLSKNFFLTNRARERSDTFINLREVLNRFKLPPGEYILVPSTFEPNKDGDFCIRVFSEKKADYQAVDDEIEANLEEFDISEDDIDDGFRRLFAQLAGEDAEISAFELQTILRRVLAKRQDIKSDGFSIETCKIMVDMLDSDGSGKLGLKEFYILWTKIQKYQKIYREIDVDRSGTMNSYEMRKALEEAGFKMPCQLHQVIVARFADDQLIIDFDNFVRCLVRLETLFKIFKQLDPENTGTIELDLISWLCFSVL
Sequence (P04632 1-268 partner): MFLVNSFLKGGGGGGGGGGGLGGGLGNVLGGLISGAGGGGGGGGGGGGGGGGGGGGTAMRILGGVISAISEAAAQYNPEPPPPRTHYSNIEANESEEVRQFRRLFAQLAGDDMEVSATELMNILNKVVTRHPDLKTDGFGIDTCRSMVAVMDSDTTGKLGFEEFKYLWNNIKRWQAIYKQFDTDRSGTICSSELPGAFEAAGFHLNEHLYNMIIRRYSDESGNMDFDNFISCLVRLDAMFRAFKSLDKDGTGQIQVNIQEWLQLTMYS
Experiment: Inhibition of recombinant human calpain-2
value.kind: pKi
One number for each entry, as −log10 of the molar value.

Task: Quick one: pKi of CCC(NC(=O)[C@H](CC(C)C)NC(=O)NCc1ccccc1)C(=O)C(=O)NCc1cccc(Cl)c1OC (stereo partly shown) ?
Output: 7.27

###

assay: PK in mice after iv injection of liposomal NA112: brain; type: in vivo; conditions: mouse, iv, 10 mg/kg, mice iv 10 mg/kg liposomes, 0.0833 hr, read-out: Brain concentration A2
value.kind: concentration at 5 min (ng/mL)
One number for each entry, in ng/mL.

Task: Fill in: concentration at 5 min of CCC(NC(=O)[C@H](CC(C)C)NC(=O)NCc1ccccc1)C(=O)C(=O)NCc1cc(OC)cc(OC)c1 (mixture of isomers) is ___
Output: 129

###

assay: PK in mice after iv injection of liposomal NA112: plasma; format: in vivo; details: mouse, iv, 10 mg/kg, mice iv 10 mg/kg liposomes, 2 hr, read-out: Plasma concentration A2
value.kind: concentration at 2 hr (ng/mL)
Numbers only, in ng/mL.

Task: What measured concentration at 2 hr goes with CCC(NC(=O)[C@H](CC(C)C)NC(=O)NCc1ccccc1)C(=O)C(=O)NCc1cc(OC)cc(OC)c1 (mixture of isomers) [NA112] ?
Output: 84
